B1: RNA Editing Helicase 2 (REH2) wild type with TAP tag [T. brucei] / REH2-Associated Factor 1 (^H2F1), endogenous [T. brucei (endogenous in Lister 427 29-13 procyclic cells)] (parent complex)
chain 1: FQTQEITPGEVSLVEATDESDRAFGETRKEDFSFDGSSEFPECFKDTKHVDTFSRARVVSFIKRFSQGAVTSSSEVFEGREIVNDNGTPLYHSRVRLPFRSHTGELWAHGVACNSKDAELLAAMHAEHIIDEFGYHIYTLPSMQRKHAEAARKAGRWAPLPDELERTQSPVRVPLPLRRIVDRDETEGGKWLLIDMRPNHYISPSHTLLSPCLFDTTAVHRIKSFLDEHKLSFAQLCTSVEEPGEGGGQSWYVATVSLPPELSTFSEIKAQGKALNREAAVTLACMHAELVLDAHSICLYPSDSTKQKQHALAAWSYGRPAPLPGEDQKNPSHVVCPLPLKQLAVRREDRISCISYEEDIIRRHRALTDQTCEFIETPTLDSSAVEQLKQFLQRENVPRTDPFLVEEVNGYYKATVVLPLPDLYGIRGGVGIAMNATDARVLAAMHAIDVLNILGFHLMDGSTARAEWIAARRARGESVPADTRDPNVLSPSGRRRVATGNSSTQTPSSSTNARSVAAAPDVGTSDPTAPQNTKRRVAKRARVADAQPTEEKDAANSDSDEATSYLKMRETVSKELWNLEPDSPDGYIMVSPTDPETRTQFEQALYSPRQVDLGSKSRIKNYLASVGRRIEEVFFVQRIEAEDNGGQAICRCAVNLPVPRRFGDRIALGEAVDPKDAENLAAMHAELILDTLGIPIYTDSALQRLHVRLCAKCGRNAPVEYSESVAAATASPPPLRREVVGSIHWENKSKRRRAAISVQKGGGPANSQETTSALREDEEPLIAPKERREYTFVPEKDLDLVSRARVHYYLRRNGIAKLEPEYRMELRGLGNVLHIAELTLPLPDVYGKRVAHGSALTKRDAEILCWMHAEQILDAVGLCLFDNLPMLQRRHVECVKRLGRWAPLVSENATKPPHTPTPLPLTLGTTQEKPQYPTPPTNVRQDWEQYAQECQRYIEINVMREHNIFYEMGKTPRTGDETYDAALAEVESMPIDPDAKTVLQRYCNVANVNYPTFWKSRTVGPISCRVCLTTIEVPGHEYLRASGVAWNKEASQRQAAMHALALLRRVEPDFAEFEKQIKAEVVDKVNLVDPAAVLDEEAPVLRRTARVSKKSLGNWDPVSKDFSHEGKVRIIELFTVCFGLQPPLVRHLNRRSGSFVQHFTVVEVTDEDGKTWVGTGRDAGPRFNEPAAFDDLFSKLSRGVQGFQALMDLIRAHPHLDPEHIANVSLTDSQKERILKAVDGLPMVEEEDVAHPEQWADADSDRGIGIMALIAMDASQRAQESQELEAKLQAKLTNEEYQTRYASQRQRLRIYEKRDEILRAISSNQIVIICGTTGCGKTTQVPQYILDDMTEKGMGGDCSIVITQPRRLSAVSIARRVAAERLESIGETCGYSIRLDAKPGRNINFCTSGVLLRLLHSAPLLNGINYLIIDEIHERDINSDFLLILLRQLLHRRKDLHVILMSATLQADQFGKYFGNAPIINVEGYVHAVEEMYLEDLVPIATERNVMTPLLKEAAAALERNGAADGFCPTVVPPTAKYGFLEATADIDYMTIQIAIDHAVRSLDLTDSSILVFLPGWDEINRAKEILERNAKFHIICLHSSVGAEEQMRCFLPAPEGKIKLILSTNIAESGVTIDDVAAVIDVGRGKEKSYVMRKGTTSVGRNEMGSMSQLVTVYASRANCVQRRGRVGRTRPGMCIRLYSKKHFQSLHDFQTPEMLRTHLDSLCLQILALDLGDPADFLQQALEPPSSDHIEAAMKRLHELGATTSTRQLTPLGLRLSRLPVAPKVGKMVIMGAILRCLDSALTIAGVSDTDVFISTREHREAVRLHKEDLSYGTQSDVIASVNAFNFWVTSHYAKTPAEVVYDLQERMLSVPQLLTVSKYKQQFFEIVAGSGFIHMKQNYKDAKNKDRADIFVDQSEYSADSLNVGLVKCVVASGLFPNVVMNRGKRLMRNKLANRLDPSSASVVHRTSQENIGQPYFVYDELVKSSESERLLVRDLTNVSLWTILLMGTSSMPVTYRDDLNLAVVDEWIMFRATFGTLELIRKFKRALNVCLGRKFMNPNDEENNAKLEELRCIIKELVCTPFKPNDLAEKPWEEKGVIIEPCTEPKGGSSEAEKTHVNSSHTPTTSAEAGGDS
chain 2: CHHPLRIPSVQLAAPRSHTHEDIAYASCPACSRVVHMCDMLTHLITAHRELDQTHCRKMCTERLALYERVIGVPLKKSELTSSGRRVLDFLPTVLPTGYMCNWCDRRSDVYATRDKFLKHVADVHTDIDLEEVEPHVPLPPRGVVVEKSNGDGGPQPTRRLNGVVAVAEKSEPINAVPRILGISLPRGVDRPLKATAQFSDTEFPCELCNRTFNSEIDLLQHLETRHPDGTAEGPAGVDSAAIADVAQFSAKEATTGGDQRVHVICDLCVSSSKVYKMPSALFSHIRFKHPNEDAAFHVERLIREQKTVSSFVCTVCQKAFASAAALDGHFNSKHAEQGEAQNVVGRVTANNCWWCHDCEKGFSSAKGLHGHMQNKHGLSSQTHPCPACKRVFADIYSLEEHLSLQHKTIRLSDIGLLTHVKCSTCERFFLSHEDLHRHAVKHHKKDPRAPAQPFEAPTSASHVAASTSAAVPSEVEATASPQGPRKVKKRKKTTEVSEVTS

Variants of: B1
measurement protocol: IgG pulldown of TAP-tagged REH2, western blot quantification; parent: 1; read off a plot
The entries below are paired with their reported ratio to parent.

>>> observed_value("chain 1 R1993A")
"~0.92"

Sure, the documented ratio to parent for chain 1 K1048A, chain 1 A1056D is ~1

Sure, the documented ratio to parent for chain 1 R1949A is ~1.1

Sure, the documented ratio to parent for chain 1 H1968E is ~0.97
